Target: Oxysterols receptor LXR-alpha (Homo sapiens) (UniProt Q13133)
Sequence (Q13133 whole entry, looked up): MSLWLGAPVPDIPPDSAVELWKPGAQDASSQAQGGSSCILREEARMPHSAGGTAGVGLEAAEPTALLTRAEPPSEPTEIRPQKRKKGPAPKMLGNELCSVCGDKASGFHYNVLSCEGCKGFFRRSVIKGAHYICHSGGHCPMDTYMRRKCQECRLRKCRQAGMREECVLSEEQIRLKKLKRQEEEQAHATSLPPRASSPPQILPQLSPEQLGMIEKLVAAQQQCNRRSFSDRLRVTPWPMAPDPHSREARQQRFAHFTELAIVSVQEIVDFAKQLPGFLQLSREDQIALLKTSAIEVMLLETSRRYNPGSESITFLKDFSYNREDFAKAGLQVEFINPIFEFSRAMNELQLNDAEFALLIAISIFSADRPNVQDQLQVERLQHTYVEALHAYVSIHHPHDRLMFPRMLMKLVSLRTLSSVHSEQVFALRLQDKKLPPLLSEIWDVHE
Assay: ATG_LXRa_TRANS: Attagene TRANS-FACTORIAL HepG2 Assay for human Liver X Receptor alpha (LXRa) (AID 2282980)
Settings: HepG2 Attagene TRANS reporter, LXRa transactivation
Results filed as inconclusive are left out. Active and inactive are the calls of the source. Rule for the calls: active = hit-call score of the fitted dose curve at least 0.9, where 1 is the maximum; inconclusive = response in the unintended direction; inactive = score below 0.9.
parameter_measured: outcome

The cases that follow already have their outcome on record.
>>> recorded_value("CC(=O)OCC=C(C)C")
"inactive"
>>> recorded_value("C1CCSC1")
"inactive"
>>> recorded_value("CC(C)c1ccc(O)c(C(C)C)c1")
"inactive"
>>> recorded_value("C=C[Si](OCCOC)(OCCOC)OCCOC")
"inactive"
>>> recorded_value("CCCCCCCCCCCC(=O)OCC")
"inactive"
>>> recorded_value("O=C(O)c1ccc2c(c1)C(=O)OC2=O")
"inactive"
>>> recorded_value("C=CCCCCCCCCC=O")
"inactive"
>>> recorded_value("CCN(CC)c1cccc(C)c1")
"inactive"

In: Returns the measured outcome for the input compound. Input: O=C1CCCCCCCCCCCN1
Out: inactive

In: Check C=CC(C)(O)CC/C=C(\C)CC (stereo unspecified) too.
Out: inactive

In: Check O=C(Cl)c1c(Cl)c(Cl)c(C(=O)Cl)c(Cl)c1Cl too.
Out: inactive

In: Check O=C(OCCc1ccccc1)c1ccccc1 too.
Out: inactive

In: Check NNS(=O)(=O)c1ccc(Oc2ccc(S(=O)(=O)NN)cc2)cc1 too.
Out: inactive

In: Check O=C(Cl)c1ccc(C(=O)Cl)cc1 too.
Out: inactive

In: Check CCOC(=O)OC(=O)OCC too.
Out: inactive

In: Check Cn1cccc1 too.
Out: inactive
